Measured GI50 values are reported for all entries that follow.
# Tested on: TK-10 renal
# ASSAY INFO: NCI tumour cell line growth inhibition, 48 h

Completed entries (count: 6):
>>> result("COc1ccc(-c2ccc(C3CC(c4ccc(O)cc4)=NN3)o2)c([N+](=O)[O-])c1 (configuration not stated)")
"40.1 µM"
>>> result("O=C(/C=C/c1ccco1)c1ccc(Nc2nc(Nc3ccc(F)cc3)nc(Nc3ccc(Cl)cc3)n2)cc1")
"10.3 µM"
>>> result("CN(C)CCNC(=O)c1ccc(Nc2nc3ccccc3c3occc23)cc1")
"1.06 µM"
>>> result("CC(C)(C)[OH+][O-].[O-]c1ccc(Cl)cc1C=Nc1ccc(Cl)cc1[O-].[O]=[V]")
"13.8 µM"
>>> result("C=C1C(=O)O[C@@H]2C[C@@H]1CC[C@]1(C)O[C@H]1CC[C@@]1(C)O[C@@H]1CC[C@@]2(C)O")
"39.4 µM"
>>> result("CCNC(=O)C[C@@H]1N=C(c2ccc(Cl)cc2)c2cc(OC)ccc2-n2c(C)nnc21")
"0.645 µM"

// query What value of measured GI50 is listed for "CC1=C(C)C(=O)c2c(c(C(=O)c3ccccc3)c3nc4ccccc4n3c2C)C1=O" ?
// result 59.5 µM

// query And what about the compound "CNc1ccccc1C(=O)N/N=C/C=C/c1ccccc1" ?
// result 3.33 µM

// query And what about the compound "C=C1C(=O)O[C@H]2[C@H]1CC/C(COC(=O)C(=O)c1c[nH]c3ccccc13)=C\CC[C@@]1(C)O[C@@H]21" ?
// result 1.38 µM

// query And what about the compound "O=C(Nc1ccc(Cl)c([N+](=O)[O-])c1)Nc1nc2ccccc2s1" ?
// result 4.26 µM

// query And what about the compound "O=[N+]([O-])c1cnc(Sc2ccncn2)c([N+](=O)[O-])c1" ?
// result 1.74 µM

// query And what about the compound "COc1cccc(-c2nn(-c3ccccc3)cc2-c2ccnc(NCCNS(=O)(=O)c3ccc(Cl)cc3)c2)c1" ?
// result 4.75 µM
